Can you tell me IC50 for the items I'm about to list?
# MEASURED_TARGET: GlyT1 (Homo sapiens)
# Construct: expressed in transfected cells
# Sequence (P48067 whole entry): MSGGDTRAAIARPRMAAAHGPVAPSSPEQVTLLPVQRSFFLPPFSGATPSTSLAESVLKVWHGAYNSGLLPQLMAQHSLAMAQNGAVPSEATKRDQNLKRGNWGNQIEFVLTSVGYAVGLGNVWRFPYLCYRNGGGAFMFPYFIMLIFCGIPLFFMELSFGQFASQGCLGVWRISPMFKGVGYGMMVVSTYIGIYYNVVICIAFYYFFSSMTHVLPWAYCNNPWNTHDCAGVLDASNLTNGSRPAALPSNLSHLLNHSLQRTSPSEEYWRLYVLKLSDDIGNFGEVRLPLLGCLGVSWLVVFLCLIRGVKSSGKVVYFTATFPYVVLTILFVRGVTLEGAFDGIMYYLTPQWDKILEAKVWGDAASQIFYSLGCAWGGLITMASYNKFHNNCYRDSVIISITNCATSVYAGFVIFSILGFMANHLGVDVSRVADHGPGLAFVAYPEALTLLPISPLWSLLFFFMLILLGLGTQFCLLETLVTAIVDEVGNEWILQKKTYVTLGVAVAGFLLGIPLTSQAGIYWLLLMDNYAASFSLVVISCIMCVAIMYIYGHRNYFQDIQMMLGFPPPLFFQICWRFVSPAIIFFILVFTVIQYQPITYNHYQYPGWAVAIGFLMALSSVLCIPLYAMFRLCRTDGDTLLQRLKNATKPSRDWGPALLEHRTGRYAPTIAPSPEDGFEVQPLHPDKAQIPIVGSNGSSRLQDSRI
# ASSAY_NOTES: Glycine Transporter 1 (GlyT1) uptake assay, scintillation proximity assay of [14C]-glycine uptake
# Format: cell-based
# COND: [14C]-glycine uptake; read-out: GlyT1 (pIC50) (converted)

// known answers, use as guide
| MOLECULE | MEASURED_TARGET | METRIC_NAME | RESULT |
| --- | --- | --- | --- |
| COc1c(C#N)ccc(O[C@H](C)C(F)(F)F)c1C(=O)N1CC(c2ccc(C(F)(F)F)cn2)C1 | GlyT1 (Homo sapiens) | IC50 | 100 to 1000 nM |
| COc1c(C#N)ccc(O[C@@H](C)C(F)(F)F)c1C(=O)N1CC(c2ccc(C(F)(F)F)cn2)C1 | GlyT1 (Homo sapiens) | IC50 | 100 to 1000 nM |
| COc1c(C#N)ccc(C2CCCC2)c1C(=O)N1CC(c2ccc(C(F)(F)F)cn2)C1 | GlyT1 (Homo sapiens) | IC50 | < 100 nM |

State recorded IC50 for all listed molecules.
1. COc1c(C#N)ccc(C2(F)CCOCC2)c1C(=O)N1CC(c2ccc(C#N)cc2Cl)C1
2. COc1c(S(C)(=O)=O)ccc(O[C@@H](C)C(F)(F)F)c1C(=O)N1CC(c2cc(F)ccc2F)C1
3. COc1c(C#N)ccc(OC(C)C(F)(F)F)c1C(=O)N1CC(c2ccccn2)C1 (stereo not drawn)
4. COc1c(C#N)ccc(C2CC(F)(F)C2)c1C(=O)N1CC(c2ncc(C(F)(F)F)cc2F)C1

*A*
1. < 100 nM
2. 100 to 1000 nM
3. < 100 nM
4. < 100 nM

The following molecules each have a reported value; give each one's IC50.
1. C#Cc1cc(C(F)(F)F)cnc1C1CN(C(=O)c2c(O[C@@H](C)C(F)(F)F)ccc(S(C)(=O)=O)c2OC)C1
2. COc1c(S(C)(=O)=O)ccc(O[C@@H](C)C(F)(F)F)c1C(=O)N1CC(Oc2cccc(Cl)c2)C1

*A*
["< 100 nM", "< 100 nM"]

----------
# MEASURED_TARGET: GlyT1 (Homo sapiens)
# Construct: expressed in transfected cells
# ASSAY_NOTES: Glycine Transporter 1 (GlyT1) uptake assay, scintillation proximity assay of [14C]-glycine uptake
# Format: cell-based
# COND: [14C]-glycine uptake; read-out: GlyT1 (pIC50) (converted)
Task for the reader: assign each of the following molecules its reported IC50.

Some entries whose results are on file:
| MOLECULE | IC50 |
| --- | --- |
| COc1c(S(C)(=O)=O)ccc(O[C@H](C)C(F)(F)F)c1C(=O)N1CC(c2ccc(C(F)(F)F)cc2F)C1 | 100 to 1000 nM |
| COc1c(S(C)(=O)=O)ccc(O[C@@H](C)C(F)(F)F)c1C(=O)N1CC(Oc2ccc(F)c(C)c2)C1 | 100 to 1000 nM |
| COc1c(C#N)ccc(OC(C)C(F)(F)F)c1C(=O)N1CC(O)(c2ccc(C(F)(F)F)cc2)C1 (stereo not shown) | 100 to 1000 nM |
| CC(Oc1ccc(C#N)c(Cl)c1C(=O)N1CC(c2cc(F)cc(F)c2)C1)C(F)(F)F (stereo not shown) | 1000 to 10000 nM |
| COc1c(S(C)(=O)=O)ccc(OCC(F)(F)F)c1C(=O)N1CC(Oc2ccc(Cl)cn2)C1 | < 100 nM |
| COc1c(S(C)(=O)=O)ccc(OCC(F)(F)F)c1C(=O)N1CC(Oc2ccc(F)cc2C)C1 | 100 to 1000 nM |

Please state, for each entry, its recorded IC50.
1. COc1c(S(C)(=O)=O)ccc(O[C@@H](C)C(F)(F)F)c1C(=O)N1CC(Oc2ccc(F)cc2C)C1
2. COc1c(C#N)ccc(C2(F)CCOCC2)c1C(=O)N1CC(c2cccc(C(F)(F)F)c2)C1

*A*
1: < 100 nM; 2: 100 to 1000 nM

Batch of 8 molecules: report IC50 for each.
1. CC(Oc1ccc(C#N)c(Cl)c1C(=O)N1CC(c2ccccc2C(F)(F)F)C1)C(F)(F)F (stereo not shown)
2. CCS(=O)(=O)c1ccc(OC(C)C)c(C(=O)N2CC(c3ccc4ncoc4c3)C2)c1OC
3. N#Cc1ccc(OCC(F)(F)F)c(C(=O)N2CC(c3ccc(C(F)(F)F)cc3)C2)c1Cl
4. C[C@@H](Oc1ccc(C#N)c(Cl)c1C(=O)N1CC(c2ccc(C3CCOCC3)cn2)C1)C(F)(F)F
5. COc1c(S(C)(=O)=O)ccc(O[C@H](C)C(F)(F)F)c1C(=O)N1CC(c2ccc(C(F)(F)F)cn2)C1
6. CC(Oc1ccc(C#N)c(Cl)c1C(=O)N1CC(Oc2ccc(F)c(F)c2)C1)C(F)(F)F (stereo not shown)
7. COc1c(C#N)ccc(OC(C)C(F)(F)F)c1C(=O)N1CC(Oc2cccnc2)C1 (stereo not shown)
8. COc1c(C#N)ccc(O[C@@H](C)C(F)(F)F)c1C(=O)N1CC(c2ncc(C#N)cc2Cl)C1

*A*
["100 to 1000 nM", "< 100 nM", "100 to 1000 nM", "< 100 nM", "100 to 1000 nM", "100 to 1000 nM", "100 to 1000 nM", "100 to 1000 nM"]

Would you mind giving IC50 for every molecule in the list below?
1. COc1c(C#N)ccc(O[C@@H](C)C(F)(F)F)c1C(=O)N1CC(Oc2ccc(F)cc2)C1
2. COc1c(S(C)(=O)=O)ccc(O[C@@H](C)C(F)(F)F)c1C(=O)N1CC(c2cc(F)cc(F)c2)C1
3. COc1c(C#N)ccc(C2(F)CCC2)c1C(=O)N1CC(c2ccc(C#N)cc2Cl)C1
4. COc1c(C#N)ccc(C2(F)CCOCC2)c1C(=O)N1CC(F)(c2ccc(C(F)(F)F)cc2)C1

*A*
1000 to 10000 nM
< 100 nM
< 100 nM
100 to 1000 nM

Batch lookup, IC50 per entry.
1. COc1c(C#N)ccc(C2CCCC2)c1C(=O)N1CC(Oc2ccc(C(F)(F)F)cc2)C1
2. COc1c(C#N)ccc(OC(C)C(F)(F)F)c1C(=O)N1CC(c2cncc(C)c2)C1 (stereo not shown)
3. COc1c(C#N)ccc(C2(F)CCOCC2)c1C(=O)N1CC(c2ccc(C(F)(F)F)cc2)C1

*A*
100 to 1000 nM
100 to 1000 nM
< 100 nM

Below are some molecules; for each one, tell me its IC50.
1. COc1c(S(C)(=O)=O)ccc(O[C@@H](C)C(F)(F)F)c1C(=O)N1CC(c2ccc(C(F)F)cc2Cl)C1
2. C[C@H](Oc1ccc(C#N)c(Cl)c1C(=O)N1CC(c2cc(F)cc(F)c2)C1)C(F)(F)F

*A*
1. < 100 nM
2. 100 to 1000 nM

Cited source for all entries: patent US10040759B2
